Target: Acidic phospholipase A2 2 (Naja naja) (UniProt P15445)
Sequence (P15445 whole entry): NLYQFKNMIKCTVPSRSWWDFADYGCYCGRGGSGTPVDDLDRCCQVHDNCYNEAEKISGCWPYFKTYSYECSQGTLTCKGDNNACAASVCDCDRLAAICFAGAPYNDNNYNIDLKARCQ
Test: Inhibition of Naja Naja venom secretory PLA2 at 10 uM
Parameters: scale not given: the % may be the effect or the level left
Decide by Activity: equal to or exceeding 7% means Met, less means Not met.

CC1(C)CCC[C@]2(C)[C@H]3CC[C@H](C(=O)O)[C@@H](/C=C/C4=CC(=O)OC4O)[C@]3(C)CC[C@@H]12 (stereo partly specified) : Not met
CC(=O)O[C@H]1O[C@@H](C2=CC(=O)OC2O)C[C@@H]2[C@@H]1CCC1[C@@]3(C)CCCC(C)(C)C3CC[C@]12C (stereo partly specified) : Not met
CC(=O)O[C@@H]1O[C@@H](C2=CC(=O)OC2O)C[C@@H]2[C@@H]1CC[C@H]1[C@@]2(C)CC[C@H]2C(C)(C)CCC[C@]12C (stereo partly specified) [PETROSASPONGIOLIDE M] : Met

Alright, here's another compound for you.
Hi, just wondering whether CC(=O)OC[C@@]1(C)CCC[C@]2(C)[C@H]3CC[C@@H]4[C@H](O)O[C@@H](C5=CC(=O)OC5O)C[C@H]4[C@]3(C)CC[C@@H]12 (stereo partly specified) shows Activity of 7% or higher. Not met
